target: human recombinant M1 muscarinic receptor expressed in CHO cells (Homo sapiens); construct: expressed in transfected cells; host or cells: CHO cells; assay: M1 binding assay (human recombinant), [3H]-scopolamine N-methyl chloride; details: Examples 15-17; unit inferred; read-out: binding affinity for cholinergic (muscarinic) receptor M1
Sequence (P11229 whole entry): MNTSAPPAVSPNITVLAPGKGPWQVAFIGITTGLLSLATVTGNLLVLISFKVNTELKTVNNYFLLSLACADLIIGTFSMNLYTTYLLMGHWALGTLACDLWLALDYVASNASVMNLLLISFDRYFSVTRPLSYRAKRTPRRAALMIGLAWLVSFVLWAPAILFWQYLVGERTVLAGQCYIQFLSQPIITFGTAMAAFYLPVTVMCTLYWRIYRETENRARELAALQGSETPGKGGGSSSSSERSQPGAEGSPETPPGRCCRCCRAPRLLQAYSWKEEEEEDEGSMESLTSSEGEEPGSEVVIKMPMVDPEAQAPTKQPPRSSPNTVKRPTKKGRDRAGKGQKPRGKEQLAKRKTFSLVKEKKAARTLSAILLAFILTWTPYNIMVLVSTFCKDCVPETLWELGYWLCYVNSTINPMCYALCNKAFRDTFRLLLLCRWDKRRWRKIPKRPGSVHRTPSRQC
assay.readout: Ki

item.smiles: CC(C)(CN1CCC(N2c3ccccc3Sc3ccccc32)CC1)C(=O)O.Cl
result: > 10 µM
//
item.smiles: CC(C)(CCN1CCN(C2=Nc3ccccc3Oc3ccc(Cl)cc32)CC1)C(=O)O
result: > 10 µM
//
item.smiles: CC(C)(CN1CCN(C2=Nc3cc(Cl)ccc3Nc3ccccc32)CC1)C(=O)O
result: > 10 µM

----------
Target: human recombinant M2 muscarinic receptor expressed in CHO cells (Homo sapiens)
Sequence (P08172 1-466): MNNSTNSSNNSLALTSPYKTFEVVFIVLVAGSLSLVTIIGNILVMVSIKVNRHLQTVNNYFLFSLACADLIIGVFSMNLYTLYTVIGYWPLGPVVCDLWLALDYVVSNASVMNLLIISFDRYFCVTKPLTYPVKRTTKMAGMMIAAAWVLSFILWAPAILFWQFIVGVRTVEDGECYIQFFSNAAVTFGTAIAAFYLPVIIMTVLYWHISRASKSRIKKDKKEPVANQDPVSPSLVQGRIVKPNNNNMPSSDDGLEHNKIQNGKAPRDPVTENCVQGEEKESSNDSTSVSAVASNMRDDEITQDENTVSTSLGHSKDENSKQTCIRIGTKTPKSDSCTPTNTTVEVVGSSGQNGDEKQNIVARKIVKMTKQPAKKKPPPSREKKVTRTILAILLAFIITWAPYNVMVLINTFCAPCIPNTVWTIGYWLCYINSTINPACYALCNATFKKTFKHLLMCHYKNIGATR
Assay: M2 binding assay (human recombinant)
Conditions: Examples 15-17; unit inferred; read-out: binding affinity for cholinergic (muscarinic) receptor M2
pKi: −log10 of the molar value.
assay.readout: pKi

item.smiles: CC(C)(CCN1CCN(C2=Nc3ccccc3Oc3ccc(Cl)cc32)CC1)C(=O)O
assay.readout: pKi
result: < 5.00
--
item.smiles: CC(C)(CN1CCC(N2c3ccccc3Sc3ccccc32)CC1)C(=O)O.Cl
assay.readout: pKi
result: < 5.00
--
item.smiles: CC(C)(CN1CCN(C2=Nc3cc(Cl)ccc3Nc3ccccc32)CC1)C(=O)O
assay.readout: pKi
result: < 5.00

----------
tested on: male Wistar rats; assay: Sleep-wakefulness, locomotor activity and body temperature monitoring (SCORE-2000); type: in vivo, rat; conditions: 30 mg/kg PO at CT-18
assay.readout: Onset (min)

molecule: O=C(O)CCN1CCC(OC(c2ccccc2)c2ccccc2)CC1 [Compound 6a]
target.or.system: male Wistar rats
result.units: min
result: 65
//
molecule: Cl.O=C(O)CCCN1CCC(OC(c2ccccc2)c2ccccc2)CC1 [Compound 53a]
target.or.system: male Wistar rats
result.units: min
result: 30
//
molecule: CC(C)OC(=O)CCN1CCC(=C(c2ccccc2)c2ccccc2)CC1 [Compound 11d]
target.or.system: male Wistar rats
result.units: min
result: 135

----------
biological target: H1 receptor from bovine cellular membranes (Bos taurus, UniProt P30546); construct: the H1 receptor was from bovine cellular membranes; test: H1 binding assay, [3H]pyrilamine displacement; details: Table 6, Series 11; unit inferred
Sequence (P30546 whole entry): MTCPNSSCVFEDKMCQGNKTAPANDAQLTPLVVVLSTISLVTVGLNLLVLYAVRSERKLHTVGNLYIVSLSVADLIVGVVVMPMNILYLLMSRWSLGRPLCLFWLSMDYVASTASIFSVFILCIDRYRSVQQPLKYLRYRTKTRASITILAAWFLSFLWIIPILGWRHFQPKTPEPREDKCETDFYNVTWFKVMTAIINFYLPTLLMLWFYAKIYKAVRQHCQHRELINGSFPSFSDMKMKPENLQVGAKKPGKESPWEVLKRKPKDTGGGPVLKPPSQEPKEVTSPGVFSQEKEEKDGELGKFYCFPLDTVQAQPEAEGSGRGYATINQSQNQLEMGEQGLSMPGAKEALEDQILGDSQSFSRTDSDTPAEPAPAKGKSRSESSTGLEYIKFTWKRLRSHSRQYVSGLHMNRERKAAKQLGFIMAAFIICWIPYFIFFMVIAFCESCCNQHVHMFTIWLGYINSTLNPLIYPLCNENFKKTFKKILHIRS

compound: O=C(O)CCN1CCC(=C(c2ccccc2)c2ccccc2)CC1 [Compound 11a]
IC50: 308 nM
//
compound: CC(C)OC(=O)CCN1CCC(=C(c2ccccc2)c2ccccc2)CC1 [Compound 11d]
IC50: 378 nM
//
compound: O=C(CCN1CCC(=C(c2ccccc2)c2ccccc2)CC1)OC1CCCC1 [Compound 11f]
IC50: 1070 nM
//
compound: CC(C)COC(=O)CCN1CCC(=C(c2ccccc2)c2ccccc2)CC1 [Compound 11e]
IC50: 718 nM
